# assay.text: Pharmacokinetic experiment in Beagle dogs, oral capsules
# Format: in vivo
# particulars: dog, plasma, male Beagle dogs, 5 mg/kg
endpoint.name: AUC(0-t)
Note: state the figure and append the unit.

Look at this molecule and give its reported AUC(0-t). O=C(O)c1ccc2c(c1)Oc1ccc(OCc3c(-c4c(Cl)cccc4Cl)noc3C3CC3)nc1C1(CC1)C2 [Crystal form H]
1130 ng·h/mL
